Reference source for all entries: paper PMC2670241

# target.entity: MOR174-9 (mOR-EG) (Mus musculus, UniProt Q920P2)
# Sequence (Q920P2 1-313): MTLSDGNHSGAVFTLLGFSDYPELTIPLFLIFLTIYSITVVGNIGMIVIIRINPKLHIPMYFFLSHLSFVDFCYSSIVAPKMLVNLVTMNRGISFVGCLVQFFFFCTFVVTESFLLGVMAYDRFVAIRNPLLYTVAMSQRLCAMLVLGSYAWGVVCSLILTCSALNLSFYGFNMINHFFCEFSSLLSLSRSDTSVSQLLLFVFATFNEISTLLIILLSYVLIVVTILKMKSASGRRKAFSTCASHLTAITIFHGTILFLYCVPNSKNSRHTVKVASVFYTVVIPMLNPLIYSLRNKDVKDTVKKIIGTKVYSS
# Type: cell-based
# experimental.setup: each at 100 μM, 15 sec application
experimental.readout: Response of MOR174-9 to odorant

Use these answered entries as a reference point.
compound: COc1cc(C=O)ccc1O
experimental.readout: Response of MOR174-9 to odorant
endpoint.value: responds
--
compound: COc1ccccc1O
experimental.readout: Response of MOR174-9 to odorant
endpoint.value: does not respond
--
compound: CCOc1cc(C=O)ccc1O
experimental.readout: Response of MOR174-9 to odorant
endpoint.value: responds
--
compound: CC(C)=CCC/C(C)=C/CO
experimental.readout: Response of MOR174-9 to odorant
endpoint.value: does not respond
--
compound: C=C(C)[C@@H]1CC=C(C)C(=O)C1 [(−) carvone]
experimental.readout: Response of MOR174-9 to odorant
endpoint.value: does not respond
--
compound: C=C(C)[C@H]1CC=C(C)C(=O)C1 [(+) carvone]
experimental.readout: Response of MOR174-9 to odorant
endpoint.value: does not respond
--
compound: C=CCc1ccc(O)c(OC)c1
experimental.readout: Response of MOR174-9 to odorant
endpoint.value: responds

Next:
Report Response of MOR174-9 to odorant for `CCCCO` tested on MOR174-9 (mOR-EG) (Mus musculus, UniProt Q920P2).
does not respond
